Experiment: Clearance in Sprague-Dawley rat at 5.0 mg/kg, iv
Format: ADME, organism-based
Design: dose 5 mg/kg, route intravenous
Conditions: in vivo
experimental_readout: clearance
Show the value, then the unit it is measured in.

**Q:** Name the reported clearance value associated with the molecule Nc1nc(N)c2nc(-c3cccc(O)c3)c(-c3cccc(O)c3)nc2n1
**A:** 66 mL/min/kg

====

Assay: Plasma concentration in Sprague-Dawley rat at 0.5 mg/kg, iv
Type: ADME, organism-based
Parameters: dose 0.5 mg/kg, route intravenous
experimental_readout: C0 (ng/mL)
Please reply with the bare figure in ng/mL and do not write the unit itself.

**Q:** Name the reported C0 value associated with the compound Nc1nc(N)c2nc(-c3cccc(O)c3)c(-c3cccc(O)c3)nc2n1
**A:** 713

====

Assay: AUC (0 to infinity) in Sprague-Dawley rat at 5.0 mg/kg, iv
Format: ADME, organism-based
Set-up: time infinity, dose 5 mg/kg, route intravenous
Settings: plasma
experimental_readout: AUC(0-inf) (ng·h/mL)
Please reply with the bare figure in ng·h/mL and do not write the unit itself.

**Q:** Name the reported AUC(0-inf) value associated with the molecule Nc1nc(N)c2nc(-c3cccc(O)c3)c(-c3cccc(O)c3)nc2n1
**A:** 1380

====

Experiment: Volume of distribution at steady state in Sprague-Dawley rat at 5.0 mg/kg, iv
Type: ADME, organism-based
Design: dose 5 mg/kg, route intravenous
Conditions: in vivo, read-out: Vdss
experimental_readout: Vd

**Q:** Name the reported Vd value associated with the molecule Nc1nc(N)c2nc(-c3cccc(O)c3)c(-c3cccc(O)c3)nc2n1
**A:** 4.4 L/kg

====

Test: Cmax in Sprague-Dawley rat at 0.5 mg/kg, iv
Format: ADME, organism-based
Set-up: dose 0.5 mg/kg, route intravenous
Conditions: in vivo
experimental_readout: Cmax (µg/mL)
Please reply with the bare figure in µg/mL and do not write the unit itself.

**Q:** Name the reported Cmax value associated with the molecule Nc1nc(N)c2nc(-c3cccc(O)c3)c(-c3cccc(O)c3)nc2n1 [TG100-115]
**A:** 0.363

====

Test: Cmax in Sprague-Dawley rat at 5.0 mg/kg, iv
Format: ADME, organism-based
Set-up: dose 5 mg/kg, route intravenous
Conditions: in vivo
experimental_readout: Cmax (ng/mL)
Please reply with the bare figure in ng/mL and do not write the unit itself.

**Q:** Name the reported Cmax value associated with the compound Nc1nc(N)c2nc(-c3cccc(O)c3)c(-c3cccc(O)c3)nc2n1
**A:** 3330

====

Assay: Half life in Sprague-Dawley rat at 5.0 mg/kg, iv
Assay type: ADME, organism-based
Set-up: dose 5 mg/kg, route intravenous
Conditions: in vivo
experimental_readout: half-life (min)
Please reply with the bare figure in min and do not write the unit itself.

**Q:** Name the reported half-life value associated with the compound Nc1nc(N)c2nc(-c3cccc(O)c3)c(-c3cccc(O)c3)nc2n1
**A:** 48

====

For each record, write down the corresponding pIC50.
Biological target: Phosphatidylinositol 4,5-bisphosphate 3-kinase catalytic subunit gamma isoform (Homo sapiens)
Sequence (P48736 whole entry, canonical isoform): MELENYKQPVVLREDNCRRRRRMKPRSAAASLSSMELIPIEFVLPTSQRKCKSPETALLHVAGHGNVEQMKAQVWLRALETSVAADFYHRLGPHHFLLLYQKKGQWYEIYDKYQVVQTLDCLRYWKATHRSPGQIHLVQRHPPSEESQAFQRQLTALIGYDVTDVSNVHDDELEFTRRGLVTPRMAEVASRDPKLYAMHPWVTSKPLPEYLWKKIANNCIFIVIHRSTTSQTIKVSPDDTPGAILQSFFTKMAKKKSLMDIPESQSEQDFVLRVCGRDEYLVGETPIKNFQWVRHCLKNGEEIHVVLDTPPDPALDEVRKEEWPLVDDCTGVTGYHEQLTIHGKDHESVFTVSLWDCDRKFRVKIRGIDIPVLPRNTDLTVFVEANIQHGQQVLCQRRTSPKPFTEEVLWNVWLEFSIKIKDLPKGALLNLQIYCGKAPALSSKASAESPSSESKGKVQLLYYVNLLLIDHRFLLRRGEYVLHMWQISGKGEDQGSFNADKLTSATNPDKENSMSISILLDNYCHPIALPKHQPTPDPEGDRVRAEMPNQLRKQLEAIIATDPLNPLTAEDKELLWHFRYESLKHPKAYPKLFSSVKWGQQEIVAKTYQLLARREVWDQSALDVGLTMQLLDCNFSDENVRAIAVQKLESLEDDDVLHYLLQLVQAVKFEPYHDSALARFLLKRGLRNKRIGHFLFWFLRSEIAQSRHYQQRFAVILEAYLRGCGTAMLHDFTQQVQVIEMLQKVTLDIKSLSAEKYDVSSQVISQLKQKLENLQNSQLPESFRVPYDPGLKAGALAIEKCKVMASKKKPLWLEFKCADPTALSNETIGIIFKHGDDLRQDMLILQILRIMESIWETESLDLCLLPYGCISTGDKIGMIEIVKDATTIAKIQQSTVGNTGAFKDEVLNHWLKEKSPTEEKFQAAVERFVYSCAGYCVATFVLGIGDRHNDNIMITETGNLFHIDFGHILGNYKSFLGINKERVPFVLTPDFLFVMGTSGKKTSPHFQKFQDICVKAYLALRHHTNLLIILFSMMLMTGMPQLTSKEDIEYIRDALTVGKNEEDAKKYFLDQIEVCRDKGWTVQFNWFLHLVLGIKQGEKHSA
Test: Inhibition of recombinant PI3Kgamma
A value of pIC50 is the negative decimal logarithm of a concentration given in moles per litre.

**Q:** Name the reported pIC50 value associated with the compound Nc1nc(N)c2ncc(-c3ccc(O)cc3)nc2n1
**A:** 5.33

**Q:** Name the reported pIC50 value associated with the compound Oc1cccc(-c2nc3nc(O)nc(O)c3nc2-c2cccc(O)c2)c1
**A:** 4.34

**Q:** Name the reported pIC50 value associated with the compound Nc1nc(NCCCN2CCOCC2)c2nc(-c3cccc(O)c3)c(-c3cccc(O)c3)nc2n1
**A:** 4.29

**Q:** Name the reported pIC50 value associated with the compound Nc1nc(N)c2nc(-c3ccc(O)cc3)c(-c3ccc(O)cc3)nc2n1
**A:** 5.57

**Q:** Name the reported pIC50 value associated with the compound Nc1ncnc2nc(-c3ccc(O)cc3)c(-c3ccc(O)cc3)nc12
**A:** 5.40

**Q:** Name the reported pIC50 value associated with the compound Nc1nc(N)c2nc(-c3cccc(OCC(O)CO)c3)c(-c3cccc(OCC(O)CO)c3)nc2n1 (configuration not stated)
**A:** 4.49

**Q:** Name the reported pIC50 value associated with the compound Nc1ccc2nc(-c3cccc(O)c3)c(-c3cccc(O)c3)nc2c1
**A:** 4.77

**Q:** Name the reported pIC50 value associated with the compound Oc1cccc(-c2nc3cncnc3nc2-c2cccc(O)c2)c1
**A:** 5.05

**Q:** Name the reported pIC50 value associated with the compound Nc1ncnc2nc(-c3ccc(O)c(O)c3)cnc12
**A:** 5.29

**Q:** Name the reported pIC50 value associated with the compound Nc1nc(N)c2nc(-c3ccc(O)c(O)c3)cnc2n1
**A:** 6.71

**Q:** Name the reported pIC50 value associated with the compound Nc1nc(N)c2nc(-c3ccccc3)c(-c3ccccc3)nc2n1
**A:** 5.07

**Q:** Name the reported pIC50 value associated with the compound COc1cccc(-c2nc3nc(N)nc(N)c3nc2-c2cccc(OC)c2)c1
**A:** 4.90

**Q:** Name the reported pIC50 value associated with the compound Nc1ncnc2nc(-c3cccc(O)c3)c(-c3cccc(O)c3)nc12
**A:** 5.40

**Q:** Name the reported pIC50 value associated with the compound Nc1nc(N)c2ncc(-c3ccc(O)c(O)c3)nc2n1
**A:** 5.23

**Q:** Name the reported pIC50 value associated with the compound Nc1nc(N)c2nc(-c3ccc(O)cc3)cnc2n1
**A:** 5.92

**Q:** Name the reported pIC50 value associated with the compound Nc1ncnc2ncc(-c3ccc(O)c(O)c3)nc12
**A:** 5.89

**Q:** Name the reported pIC50 value associated with the compound Nc1nc(N)c2ncc(-c3cccc(O)c3)nc2n1
**A:** 5.52
